Target: Pyruvate kinase PKM (Homo sapiens)
Test: qHTS Assay for Inhibitors of Human Muscle isoform 2 Pyruvate Kinase; note: nearly all actives have a fitted effect of over 60% in size
Conditions: purified PKM2, ATP generation, Kinase-Glo luminescence; series mostly up to 57.5 µM
The whole screen tested about 260,000 compounds, of which about 150 (0.058%) were called active. Calls come from the whole dose curve; as a rule, active = well fitted inhibition curve with a large enough effect; inconclusive = small, poorly fitted or top-dose-only effect; inactive = no such curve, though single readings can be large or run the other way. What follows is part of a selection rich in actives, with near analogues and random picks from the rest.
I would appreciate it if you answered using one of these outcomes: TRUE for active, FALSE for inactive

Worked examples follow.
{"COMPOUND": "CCCc1nc(N2CCN(C)CC2)c2sc(=S)n(-c3ccccc3)c2n1", "MEASURED TARGET": "Pyruvate kinase PKM (Homo sapiens)", "CAT": "FALSE"}
{"COMPOUND": "Oc1ccccc1CNc1ncc(Br)cc1Br", "MEASURED TARGET": "Pyruvate kinase PKM (Homo sapiens)", "CAT": "FALSE"}
{"COMPOUND": "Cn1ncc(N2CCN(S(=O)(=O)c3ccc(Br)cc3)CC2)c(Cl)c1=O", "MEASURED TARGET": "Pyruvate kinase PKM (Homo sapiens)", "CAT": "FALSE"}
{"COMPOUND": "O=C(CCC(=O)N1CCN(S(=O)(=O)c2ccccc2)CC1)NC1CCCc2ccccc21 (centres undefined)", "MEASURED TARGET": "Pyruvate kinase PKM (Homo sapiens)", "CAT": "FALSE"}

Give the logged outcome of this assay for the following compound: "c1cc(-n2cnnn2)ccc1NC1=NCCC1"
FALSE

Give the logged outcome of this assay for the following compound: "Cc1ccnc(Nc2nc3ccccc3s2)n1"
FALSE

Give the logged outcome of this assay for the following compound: "Cc1nc(SCC(=O)N2CC(=O)Nc3ccccc32)c2c(C)c(C)sc2n1"
FALSE

Give the logged outcome of this assay for the following compound: "CN(CCc1ccccc1)c1ccc([N+](=O)[O-])cn1"
FALSE

Give the logged outcome of this assay for the following compound: Cc1ccc(CNC(=O)C2CCCN2C(=O)NCc2ccccc2)cc1 (centres undefined)
FALSE

Give the logged outcome of this assay for the following compound: "COc1ccc(-c2cn3ccc(C)cc3n2)cc1"
TRUE

###

Target: Pyruvate kinase PKM (Homo sapiens) (UniProt P14618)
Sequence (P14618 whole entry, looked up, canonical isoform): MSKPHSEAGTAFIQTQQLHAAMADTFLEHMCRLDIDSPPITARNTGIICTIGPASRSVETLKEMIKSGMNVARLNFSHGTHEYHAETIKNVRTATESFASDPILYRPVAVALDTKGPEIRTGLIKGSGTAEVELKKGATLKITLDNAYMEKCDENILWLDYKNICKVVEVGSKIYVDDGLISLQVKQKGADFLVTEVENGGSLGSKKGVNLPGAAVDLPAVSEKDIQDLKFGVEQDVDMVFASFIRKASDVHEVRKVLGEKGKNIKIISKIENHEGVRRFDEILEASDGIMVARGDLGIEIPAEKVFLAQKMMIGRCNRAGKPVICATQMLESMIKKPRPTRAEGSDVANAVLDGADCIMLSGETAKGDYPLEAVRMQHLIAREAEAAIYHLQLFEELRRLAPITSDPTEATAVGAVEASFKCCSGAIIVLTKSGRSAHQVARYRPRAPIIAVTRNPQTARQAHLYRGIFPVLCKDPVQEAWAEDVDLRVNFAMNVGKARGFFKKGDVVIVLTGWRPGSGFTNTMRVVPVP
Experiment: qHTS Assay for Inhibitors of Human Muscle isoform 2 Pyruvate Kinase; note: nearly all actives have a fitted effect of over 60% in size
Settings: purified PKM2, ATP generation, Kinase-Glo luminescence; series mostly up to 57.5 µM
The campaign covered roughly 260,000 compounds. About 150 (0.058%) were called active. This is one part of a sample in which actives are shown more often than they occur.
QUANTITY MEASURED: outcome

{"COMPOUND": "CC1CC(c2ccccc2)n2nc(NC(=O)c3cccs3)nc2N1 (stereo not drawn)", "MEASURED TARGET": "Pyruvate kinase PKM (Homo sapiens) (UniProt P14618)", "ENDPOINT VALUE": "inactive"}
{"COMPOUND": "Cc1ccc(OS(=O)Nc2cccc3nccnc23)cc1 (stereo not drawn)", "MEASURED TARGET": "Pyruvate kinase PKM (Homo sapiens) (UniProt P14618)", "ENDPOINT VALUE": "inactive"}
{"COMPOUND": "O=S(=O)(c1ccc2ccccc2c1)N1CCN(S(=O)(=O)N2CCOCC2)CC1", "MEASURED TARGET": "Pyruvate kinase PKM (Homo sapiens) (UniProt P14618)", "ENDPOINT VALUE": "inactive"}
